Reference for the values: patent US8796268B2

Biological target: Human PI3K beta (Homo sapiens)
Construct: His (N); host or cells: SF9 insect cells (baculovirus)
Sequence (P42338 whole entry): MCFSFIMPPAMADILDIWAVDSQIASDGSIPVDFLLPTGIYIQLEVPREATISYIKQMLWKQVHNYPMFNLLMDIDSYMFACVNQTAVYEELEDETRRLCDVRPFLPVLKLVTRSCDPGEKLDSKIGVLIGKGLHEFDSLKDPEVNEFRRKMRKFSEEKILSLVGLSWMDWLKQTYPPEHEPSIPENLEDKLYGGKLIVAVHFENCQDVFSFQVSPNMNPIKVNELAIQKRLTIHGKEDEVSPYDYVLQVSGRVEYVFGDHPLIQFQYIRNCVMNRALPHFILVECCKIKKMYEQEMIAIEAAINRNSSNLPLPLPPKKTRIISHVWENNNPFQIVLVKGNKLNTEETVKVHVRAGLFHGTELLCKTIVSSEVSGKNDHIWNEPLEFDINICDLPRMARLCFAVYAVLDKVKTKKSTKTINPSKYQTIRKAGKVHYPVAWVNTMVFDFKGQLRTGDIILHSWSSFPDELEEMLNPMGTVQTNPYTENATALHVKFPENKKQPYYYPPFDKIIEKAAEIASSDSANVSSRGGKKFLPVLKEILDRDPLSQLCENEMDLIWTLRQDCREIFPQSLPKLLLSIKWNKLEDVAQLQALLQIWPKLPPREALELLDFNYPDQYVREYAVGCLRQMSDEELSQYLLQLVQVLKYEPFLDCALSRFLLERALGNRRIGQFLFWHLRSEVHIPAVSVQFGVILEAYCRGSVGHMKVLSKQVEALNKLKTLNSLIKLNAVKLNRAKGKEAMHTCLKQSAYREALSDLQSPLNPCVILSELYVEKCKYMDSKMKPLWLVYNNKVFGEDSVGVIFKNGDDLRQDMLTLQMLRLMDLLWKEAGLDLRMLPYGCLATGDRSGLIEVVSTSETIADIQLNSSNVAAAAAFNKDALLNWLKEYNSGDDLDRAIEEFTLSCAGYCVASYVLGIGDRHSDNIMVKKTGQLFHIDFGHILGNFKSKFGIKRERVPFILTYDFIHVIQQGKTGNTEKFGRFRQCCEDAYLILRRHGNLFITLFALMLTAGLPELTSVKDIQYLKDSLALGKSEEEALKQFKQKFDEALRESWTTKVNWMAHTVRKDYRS
Sequence (P27986 whole entry partner): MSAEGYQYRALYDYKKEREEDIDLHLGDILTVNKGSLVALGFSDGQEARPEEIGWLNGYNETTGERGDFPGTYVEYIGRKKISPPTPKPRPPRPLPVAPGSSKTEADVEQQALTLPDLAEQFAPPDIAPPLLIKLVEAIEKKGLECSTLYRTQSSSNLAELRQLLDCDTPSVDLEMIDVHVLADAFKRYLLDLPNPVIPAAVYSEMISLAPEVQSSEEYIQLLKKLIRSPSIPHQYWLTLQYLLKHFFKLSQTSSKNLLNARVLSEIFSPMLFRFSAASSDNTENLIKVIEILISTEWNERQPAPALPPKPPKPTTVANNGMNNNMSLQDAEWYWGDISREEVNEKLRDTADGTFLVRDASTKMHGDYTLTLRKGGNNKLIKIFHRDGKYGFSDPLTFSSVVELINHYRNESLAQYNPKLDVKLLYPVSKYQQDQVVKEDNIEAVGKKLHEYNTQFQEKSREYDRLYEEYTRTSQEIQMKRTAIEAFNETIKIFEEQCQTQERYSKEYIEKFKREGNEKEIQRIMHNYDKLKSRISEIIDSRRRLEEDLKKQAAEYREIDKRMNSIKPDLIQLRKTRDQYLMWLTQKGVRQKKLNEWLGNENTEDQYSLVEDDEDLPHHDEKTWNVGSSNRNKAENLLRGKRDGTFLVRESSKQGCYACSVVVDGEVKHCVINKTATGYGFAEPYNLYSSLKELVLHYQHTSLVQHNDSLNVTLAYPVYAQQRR
Experiment: Human PI3K beta enzyme assay (HTRF)
Type: biochemical
Settings: concentration not given; b1387 states 1.1 μM for PI3K α and β; read-out: p110 beta Percent Inhibition
Protocol: The catalytic subunits of PI3Ks are cloned into either pDEST8(p110 alpha) or pDEST10(p110beta, p110delta, and p110gamma) as N-terminal His tagged fusion proteins using the Gateway system (Invitrogen, catalog#11804-010 for pDEST8 and 11806-015 for pDEST10). […] For the assay methods described above, test compound percent inhibition, at various concentrations, is calculated relative to control (DMSO and EDTA) treated samples. […]
reported_endpoint: inhibition at 1.1 µM (%)
# number only, unit % dropped from output

[
  {
    "compound": "CC(=O)Nc1cc(-c2cc(C(c3ccc(Cl)cc3)N3CC[C@@H](CO)C3)c(-c3nc[nH]n3)s2)ccn1 (some centres unmarked)",
    "reported_result": 94
  },
  {
    "compound": "CC(=O)Nc1cc(-c2nc(C(c3ccc(Cl)cc3)N3CCNCC3)c(-c3nnc[nH]3)s2)ccn1 (centres unmarked)",
    "reported_result": 105
  },
  {
    "compound": "N#Cc1ccc2ccc(Cc3nc(N4CCOCC4)sc3C(=O)O)cc2c1",
    "reported_result": 89
  },
  {
    "compound": "O=C(O)c1sc(N2CCOCC2)nc1Cc1ccc2ccc(F)cc2c1",
    "reported_result": 106
  }
]

Q. Find inhibition at 1.1 µM (Human PI3K beta (Homo sapiens)) for the entry O=C(O)c1sc(N2CCOCC2)nc1Cc1ccc2cnccc2c1
A. 82

Q. Find inhibition at 1.1 µM (Human PI3K beta (Homo sapiens)) for the entry COC(c1ccc(Cl)cc1)c1cc(-c2ccnc(NC(C)=O)c2)sc1-c1nnc[nH]1 (centres unmarked)
A. 91

Q. Find inhibition at 1.1 µM (Human PI3K beta (Homo sapiens)) for the entry CN(C)C(c1ccc(Cl)cc1)c1c(C(=O)O)sc(N2CCOCC2)c1C#N (centres unmarked)
A. 82

Q. Find inhibition at 1.1 µM (Human PI3K beta (Homo sapiens)) for the entry CC(=O)Nc1cc(-c2cc(C(c3ccc(Cl)cc3)n3cccn3)c(-c3nnc[nH]3)s2)ccn1 (centres unmarked)
A. 96

====

Target: Human PI3K alpha (Homo sapiens, UniProt P42336)
Construct: His (N); host or cells: SF9 insect cells (baculovirus)
Sequence (P42336 whole entry, one chain of several): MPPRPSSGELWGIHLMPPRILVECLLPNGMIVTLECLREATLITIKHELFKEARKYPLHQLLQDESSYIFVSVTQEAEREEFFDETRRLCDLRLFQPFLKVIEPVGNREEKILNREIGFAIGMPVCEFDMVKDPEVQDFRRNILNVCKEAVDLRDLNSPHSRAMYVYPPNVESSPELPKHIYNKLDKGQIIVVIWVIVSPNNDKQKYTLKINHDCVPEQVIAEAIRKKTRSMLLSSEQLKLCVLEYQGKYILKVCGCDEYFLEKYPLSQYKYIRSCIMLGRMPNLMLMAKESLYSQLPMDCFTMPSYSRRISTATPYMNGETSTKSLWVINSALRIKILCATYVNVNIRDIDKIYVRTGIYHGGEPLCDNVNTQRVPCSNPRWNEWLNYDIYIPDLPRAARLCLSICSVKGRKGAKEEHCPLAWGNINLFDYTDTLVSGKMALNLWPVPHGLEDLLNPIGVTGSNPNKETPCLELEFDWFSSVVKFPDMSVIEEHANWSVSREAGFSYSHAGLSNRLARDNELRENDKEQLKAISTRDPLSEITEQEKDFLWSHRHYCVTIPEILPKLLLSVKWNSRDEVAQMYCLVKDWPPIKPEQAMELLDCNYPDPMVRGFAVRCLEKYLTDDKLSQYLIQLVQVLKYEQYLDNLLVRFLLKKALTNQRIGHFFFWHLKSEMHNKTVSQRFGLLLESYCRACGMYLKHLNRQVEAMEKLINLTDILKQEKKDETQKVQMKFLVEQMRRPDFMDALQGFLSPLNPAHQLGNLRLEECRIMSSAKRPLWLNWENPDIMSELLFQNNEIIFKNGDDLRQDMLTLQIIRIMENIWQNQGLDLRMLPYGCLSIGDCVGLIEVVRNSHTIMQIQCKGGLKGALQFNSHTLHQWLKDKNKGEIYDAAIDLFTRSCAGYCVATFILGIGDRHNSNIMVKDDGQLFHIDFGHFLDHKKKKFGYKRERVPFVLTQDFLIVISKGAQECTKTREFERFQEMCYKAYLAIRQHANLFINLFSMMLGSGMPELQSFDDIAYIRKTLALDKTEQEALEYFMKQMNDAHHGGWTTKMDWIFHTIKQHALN
Assay: Human PI3K alpha enzyme assay (HTRF)
Type: biochemical
Settings: concentration not given; b1387 states 1.1 μM for PI3K α and β; read-out: p110 alpha Percent Inhibition
inhibition at 1.1 µM by entry:

[
  {
    "compound": "O=C(O)c1sc(-c2ccncc2)cc1C(O)c1ccc2ccccc2c1 (stereo not shown) [Compound 205]",
    "reported_result": "42%"
  },
  {
    "compound": "O=C(O)c1sc(N2CCOCC2)nc1Cc1cc(F)c2ccccc2c1 [Compound 338]",
    "reported_result": "67%"
  },
  {
    "compound": "OC(c1ccc2ccccc2n1)c1cc(-c2ccncc2)sc1-c1nnc[nH]1 (stereo not shown) [Compound 171]",
    "reported_result": "59%"
  },
  {
    "compound": "Clc1ccc(Cc2nc(-c3ccncc3)sc2-c2nnn[nH]2)cc1 [Compound 190]",
    "reported_result": "3%"
  },
  {
    "compound": "CC(=O)Nc1cc(-c2cc(C(NCC3CNC3)c3ccc(Cl)cc3)c(-c3nnc[nH]3)s2)ccn1 (stereo not shown) [Compound 129]",
    "reported_result": "83%"
  }
]

Consider the additional compound presented here.
Q. Bench note: what inhibition at 1.1 µM did CC(=O)Nc1cc(-c2cc(C(c3ccc(Cl)cc3)N3CCC(CN)C3)c(-c3nnc[nH]3)s2)ccn1 (stereo not shown) [Compound 139] show?
A. 77%
